B1: Caulobacter ParB omega fusion; a variant is named by its letters at X, in order, B8GW30 (parent)
chain: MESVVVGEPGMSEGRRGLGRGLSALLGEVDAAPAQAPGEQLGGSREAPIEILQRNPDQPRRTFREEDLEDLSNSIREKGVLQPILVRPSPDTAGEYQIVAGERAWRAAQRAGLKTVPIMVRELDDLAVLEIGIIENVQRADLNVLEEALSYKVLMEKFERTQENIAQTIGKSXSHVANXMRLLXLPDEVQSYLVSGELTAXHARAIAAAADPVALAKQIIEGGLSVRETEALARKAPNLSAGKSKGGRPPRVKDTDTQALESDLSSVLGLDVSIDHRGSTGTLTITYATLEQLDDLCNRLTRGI

Variants of: B1
measurement.protocol: one-hybrid fitness for binding parS DNA (scaled: cognate 1, non-cognate 0); higher = stronger binding
measurement.context: with parS DNA site
Whole data set: some 81,000 sequences, median “one-hybrid fitness for binding parS DNA” near -0.17, cut for the highest 2% near 0.51. This is one part of a sample in which the highest values are shown more often than they occur.
readout: one-hybrid fitness for binding parS DNA

Lab book: one-hybrid fitness for binding parS DNA of HHQT noted as ≤ 0.2

Lab book: one-hybrid fitness for binding parS DNA of RIHD noted as ≤ 0.2

Lab book: one-hybrid fitness for binding parS DNA of RGTR noted as ≤ 0.2

Lab book: one-hybrid fitness for binding parS DNA of RANN noted as 0.434

Lab book: one-hybrid fitness for binding parS DNA of RIKC noted as 0.805

Lab book: one-hybrid fitness for binding parS DNA of RIRP noted as ≤ 0.2

Lab book: one-hybrid fitness for binding parS DNA of RILP noted as ≤ 0.2

Lab book: one-hybrid fitness for binding parS DNA of RIRS noted as 0.874

Lab book: one-hybrid fitness for binding parS DNA of RHAA noted as 0.534

Lab book: one-hybrid fitness for binding parS DNA of VRSD noted as ≤ 0.2

Lab book: one-hybrid fitness for binding parS DNA of RIWD noted as ≤ 0.2

Lab book: one-hybrid fitness for binding parS DNA of RDVW noted as ≤ 0.2

Lab book: one-hybrid fitness for binding parS DNA of PGQN noted as ≤ 0.2

Lab book: one-hybrid fitness for binding parS DNA of RANT noted as 0.907

Lab book: one-hybrid fitness for binding parS DNA of RFKP noted as ≤ 0.2

Lab book: one-hybrid fitness for binding parS DNA of RAGT noted as 0.92

Lab book: one-hybrid fitness for binding parS DNA of RAGQ noted as ≤ 0.2

Lab book: one-hybrid fitness for binding parS DNA of RVLP noted as ≤ 0.2

Lab book: one-hybrid fitness for binding parS DNA of RGGA noted as 0.285
